study_target: hGIPR (Homo sapiens, UniProt P48546)
Construct: expressed in transfected cells; host or cells: CHO cells carrying a CRE-luciferase reporter gene
Sequence (P48546 22-466): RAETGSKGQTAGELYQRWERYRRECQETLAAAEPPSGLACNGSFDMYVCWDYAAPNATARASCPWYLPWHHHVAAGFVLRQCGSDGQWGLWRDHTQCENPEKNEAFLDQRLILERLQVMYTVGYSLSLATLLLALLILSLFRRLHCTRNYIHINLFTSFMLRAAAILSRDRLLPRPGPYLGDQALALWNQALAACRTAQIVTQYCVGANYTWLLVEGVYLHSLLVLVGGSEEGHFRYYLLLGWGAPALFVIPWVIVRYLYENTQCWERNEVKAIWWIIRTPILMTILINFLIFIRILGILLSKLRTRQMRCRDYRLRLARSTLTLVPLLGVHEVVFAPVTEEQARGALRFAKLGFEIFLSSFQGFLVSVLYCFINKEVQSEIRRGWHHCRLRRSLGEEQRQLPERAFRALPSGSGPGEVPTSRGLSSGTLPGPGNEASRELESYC
measurement_protocol: hGIPR CreLuc reporter gene assay in 0.5% and 100% plasma
Assay type: cell-based
experimental_context: CreLuc reporter gene assay, 0.5% human plasma; read-out: hGIPR 0.5% hP
pEC50: −log10 of the molar value. Starred links: 1 amine or outer side, 2 acyl side, 3 side chain; linkers in the order of their positions; H or OH if unused. Positions of bridges follow the written chain, without caps; N, C: chain ends. Non-standard residues stand in square brackets, D forms with d. Groups on a side chain read outwards from the residue. Chains are numbered I, II in the order given. *: point of attachment. C20 diacid = O=C(O)CCCCCCCCCCCCCCCCCCC(=O)*; C18 diacid = O=C(O)CCCCCCCCCCCCCCCCC(=O)*; γGlu = O=C(O)[C@H](CCC(=O)[*:2])N[*:1]; εLys = N[C@@H](CCCCN[*:1])C(=O)[*:2]; NMeR = CN[C@@H](CCCNC(=N)N)C(=O)O; hArg = N=C(N)NCCCC[C@H](N)C(=O)O; AEEA = NCCOCCOCC(=O)O; Aib = CC(C)(N)C(=O)O
quantity_name: pEC50

[[record]]
substance = "H-Y[Aib]EGTFTSDYSI[Aib]LEKQAQ[Aib]EFVEWLIK([AEEA-AEEA-γGlu-γGlu-γGlu-C20 diacid])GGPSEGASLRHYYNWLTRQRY-NH2 [Compound 273]"
study_target = "hGIPR (Homo sapiens, UniProt P48546)"
measurement = 9.42

[[record]]
substance = "H-Y[Aib]EGTFTSDYSI[Aib]LEEQAQ[Aib]AFVQWLIK([εLys-AEEA-γGlu-γGlu-γGlu-γGlu-γGlu-C20 diacid])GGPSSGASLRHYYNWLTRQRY-NH2 [Compound 45]"
study_target = "hGIPR (Homo sapiens, UniProt P48546)"
measurement = 9.85

[[record]]
substance = "H-Y[Aib]EGTFTSDYSI[Aib]LEKQAQ[Aib]AFVEWLIK([εLys-γGlu-γGlu-γGlu-γGlu-γGlu-γGlu-C20 diacid])GGPSEGASLRHYYNWLTRQ[NMeR]Y-NH2 [Compound 236]"
study_target = "hGIPR (Homo sapiens, UniProt P48546)"
measurement = 9.52

[[record]]
substance = "H-Y[Aib]EGTFTSDYSI[Aib]LEAQAQ[Aib]AFVEWLIK([εLys-γGlu-γGlu-γGlu-γGlu-γGlu-γGlu-C20 diacid])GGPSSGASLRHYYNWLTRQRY-NH2 [Compound 102]"
study_target = "hGIPR (Homo sapiens, UniProt P48546)"
measurement = 9.01

[[record]]
substance = "H-Y[Aib]EGTFTSDYSI[Aib]LEKQAQ[Aib]AFVQWLIK([AEEA-AEEA-Glu-Glu-Glu-Glu-C18 diacid])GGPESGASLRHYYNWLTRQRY-NH2 [Compound 52]"
study_target = "hGIPR (Homo sapiens, UniProt P48546)"
measurement = 9.92

[[record]]
substance = "H-Y[Aib]EGTFTSDYSI[Aib]LEKQAQ[Aib]AFVEWLIK([γGlu-γGlu-γGlu-γGlu-γGlu-C18 diacid])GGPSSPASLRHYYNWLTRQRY-NH2 [Compound 180]"
study_target = "hGIPR (Homo sapiens, UniProt P48546)"
measurement = 9.70

[[record]]
substance = "H-Y[Aib]EGTFTSDYSI[Aib]LEKQAQ[Aib]AFVQWLIK([γGlu-γGlu-γGlu-γGlu-γGlu-C20 diacid])GGPESPASLRHYYNWLTRQRY-NH2 [Compound 11]"
study_target = "hGIPR (Homo sapiens, UniProt P48546)"
measurement = 9.77

[[record]]
substance = "H-Y[Aib]EGTFTSDYSI[Aib]LERQAQ[Aib]AFVEWLIK([εLys-γGlu-γGlu-γGlu-γGlu-γGlu-γGlu-C20 diacid])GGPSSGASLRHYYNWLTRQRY-NH2 [Compound 131]"
study_target = "hGIPR (Homo sapiens, UniProt P48546)"
measurement = 9.46

[[record]]
substance = "H-Y[Aib]EGTFTSDYSI[Aib]LEKQAQ[Aib]AFVQWLIK([γGlu-γGlu-γGlu-γGlu-γGlu-C18 diacid])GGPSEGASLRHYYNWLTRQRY-NH2 [Compound 250]"
study_target = "hGIPR (Homo sapiens, UniProt P48546)"
measurement = 9.70

[[record]]
substance = "H-Y[Aib]EGTFTSDYSI[Aib]LEKQAQ[Aib]EFVEWLIK([AEEA-AEEA-γGlu-C18 diacid])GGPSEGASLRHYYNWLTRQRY-NH2 [Compound 282]"
study_target = "hGIPR (Homo sapiens, UniProt P48546)"
measurement = 9.77

[[record]]
substance = "H-Y[Aib]EGTFTSDYSI[Aib]LEKQAQ[Aib]AFVQWLIK([AEEA-AEEA-Glu-Glu-Glu-Glu-C20 diacid])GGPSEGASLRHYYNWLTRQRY-NH2 [Compound 239]"
study_target = "hGIPR (Homo sapiens, UniProt P48546)"
measurement = 9.46

[[record]]
substance = "H-Y[Aib]EGTFTSDYSI[Aib]LEKQAQ[Aib]AFVQWLIK([AEEA-AEEA-γGlu-γGlu-γGlu-γGlu-γGlu-C20 diacid])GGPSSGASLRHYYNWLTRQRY-NH2 [Compound 112]"
study_target = "hGIPR (Homo sapiens, UniProt P48546)"
measurement = 9.72

[[record]]
substance = "H-Y[Aib]EGTFTSDYSI[Aib]LEKQAQ[Aib]AFVEWLIK([εLys-γGlu-γGlu-γGlu-γGlu-γGlu-γGlu-C20 diacid])GGPSSGAS[Aib]RHYYNWLT[hArg]QR[dY]-NH2 [Compound 26]"
study_target = "hGIPR (Homo sapiens, UniProt P48546)"
measurement = 10.05

[[record]]
substance = "H-Y[Aib]EGTFTSDYSI[Aib]LEKQAQ[Aib]AFVEWLIK([εLys-γGlu-γGlu-γGlu-γGlu-γGlu-γGlu-C20 diacid])GGPSSGISLRHYYNWLTRQRY-NH2 [Compound 94]"
study_target = "hGIPR (Homo sapiens, UniProt P48546)"
measurement = 9.66

[[record]]
substance = "H-Y[Aib]EGTFTSDYSI[Aib]LEKQAQ[Aib]AFVQWLIK([AEEA-AEEA-Glu-Glu-Glu-Glu-C18 diacid])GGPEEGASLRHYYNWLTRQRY-NH2 [Compound 177]"
study_target = "hGIPR (Homo sapiens, UniProt P48546)"
measurement = 9.55

[[record]]
substance = "H-Y[Aib]EGTFTSDYSI[Aib]LEKQAQ[Aib]AFVEWLIK([εLys-γGlu-γGlu-γGlu-γGlu-γGlu-γGlu-C20 diacid])GGPSSGVSLRHYYNWLTRQRY-NH2 [Compound 96]"
study_target = "hGIPR (Homo sapiens, UniProt P48546)"
measurement = 9.72

[[record]]
substance = "H-Y[Aib]EGTFTSDYSI[Aib]LEKQAQ[Aib]AFVEWLIK([AEEA-AEEA-γGlu-γGlu-γGlu-γGlu-γGlu-C18 diacid])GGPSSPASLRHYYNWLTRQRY-NH2 [Compound 140]"
study_target = "hGIPR (Homo sapiens, UniProt P48546)"
measurement = 9.66

[[record]]
substance = "H-Y[Aib]EGTFTSDYSI[Aib]LEKQAQ[Aib]EFVQWLIK([γGlu-γGlu-γGlu-γGlu-γGlu-γGlu-C18 diacid])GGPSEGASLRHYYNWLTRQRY-NH2 [Compound 151]"
study_target = "hGIPR (Homo sapiens, UniProt P48546)"
measurement = 9.04

[[record]]
substance = "H-Y[Aib]EGTFTSDYSI[Aib]LEKQAQ[Aib]AFVEWLIK([εLys-γGlu-γGlu-γGlu-γGlu-γGlu-γGlu-C20 diacid])GGPSSGAS[Aib]RHYYNWLTRQ[NMeR]Y-NH2 [Compound 39]"
study_target = "hGIPR (Homo sapiens, UniProt P48546)"
measurement = 10.22

[[record]]
substance = "I: H-Y[Aib]EGTFTSDYSI[Aib]LEKQAQ[Aib]AFVEWLIKGGPSEGASLRHYYNWLTRQRY-NH2 / II: {C18 diacid}-EEEEEE (amide I:28-II:C) [Compound 302]"
study_target = "hGIPR (Homo sapiens, UniProt P48546)"
measurement = 9.48

